What follows is a record of log10(IC50) for DLK (Homo sapiens (Human)).
Please note: log10 values; quantity IC50; unit nM.

# count of solved cases: 3
- COMPOUND: "CC(C)NC(=O)c1cc(-c2csc(C(=O)NCc3nc4ccccc4o3)c2)cc2nc(N)nn12"
  NUMERIC_VALUE: 1.56
- COMPOUND: "CCOc1ccccc1CNC(=O)c1cc(-c2ccc3nc(N)nn3c2)cs1"
  NUMERIC_VALUE: 2.83
- COMPOUND: "C[C@@H](CO)NC(=O)c1cc(-c2ccc3nc(N)nn3c2)cs1"
  NUMERIC_VALUE: 3.36

Next up:
Challenge: Retrieve log10(IC50) measured for "Cc1c(-c2ccc3nc(N)nn3c2)csc1C(=O)N[C@@H](C)c1ccc(F)cc1" and print it.
Response given: 3.81

###

# EXPERIMENTAL_SYSTEM: LZK (Homo sapiens (Human), UniProt O43283)
# Sequence (O43283 168-409): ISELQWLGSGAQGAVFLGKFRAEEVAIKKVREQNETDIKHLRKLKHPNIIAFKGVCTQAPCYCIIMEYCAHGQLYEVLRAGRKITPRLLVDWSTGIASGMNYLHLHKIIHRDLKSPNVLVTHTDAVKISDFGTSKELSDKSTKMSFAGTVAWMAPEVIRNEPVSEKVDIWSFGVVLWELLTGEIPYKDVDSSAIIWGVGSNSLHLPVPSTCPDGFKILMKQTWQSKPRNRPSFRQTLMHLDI
RECORDED_METRIC: pIC50
Just so you know, pIC50 here is -log10 of the concentration in molar units; reply with that number alone.

# count of solved cases: 3
- SMILES_REPRESENTATION: "C[C@H](NC(=O)c1cc(-c2cc(C(=O)NC3CCC3)c3nc(N)nn3c2)cs1)c1ccc(C(F)(F)F)cc1"
  EXPERIMENTAL_SYSTEM: "LZK (Homo sapiens (Human), UniProt O43283)"
  pIC50: 5.70
- SMILES_REPRESENTATION: "Nc1nc2c(C(=O)NCC(F)(F)F)cc(-c3csc(C(=O)NCc4ccccc4)c3)cn2n1"
  EXPERIMENTAL_SYSTEM: "LZK (Homo sapiens (Human), UniProt O43283)"
  pIC50: 5.21
- SMILES_REPRESENTATION: "Nc1nc2ccc(-c3csc(C(=O)NCc4cnc5ccccn45)c3)cn2n1"
  EXPERIMENTAL_SYSTEM: "LZK (Homo sapiens (Human), UniProt O43283)"
  pIC50: 4.85

Challenge: Specify the recorded pIC50 for "Nc1nc2c(C(=O)NC3CNC3)cc(-c3csc(C(=O)NCc4ccc(F)cc4)c3)cn2n1" , system: LZK (Homo sapiens (Human), UniProt O43283).
Response given: 6.18

Challenge: Specify the recorded pIC50 for "CC[C@H](C)NC(=O)c1cc(-c2csc(C(=O)N[C@@H](COC)c3ccc(F)cc3)c2)cc2nc(N)nn12" , system: LZK (Homo sapiens (Human), UniProt O43283).
Response given: 7.80

###

# EXPERIMENTAL_SYSTEM: DLK (Homo sapiens (Human), UniProt Q12852)
# Sequence (Q12852 1-520): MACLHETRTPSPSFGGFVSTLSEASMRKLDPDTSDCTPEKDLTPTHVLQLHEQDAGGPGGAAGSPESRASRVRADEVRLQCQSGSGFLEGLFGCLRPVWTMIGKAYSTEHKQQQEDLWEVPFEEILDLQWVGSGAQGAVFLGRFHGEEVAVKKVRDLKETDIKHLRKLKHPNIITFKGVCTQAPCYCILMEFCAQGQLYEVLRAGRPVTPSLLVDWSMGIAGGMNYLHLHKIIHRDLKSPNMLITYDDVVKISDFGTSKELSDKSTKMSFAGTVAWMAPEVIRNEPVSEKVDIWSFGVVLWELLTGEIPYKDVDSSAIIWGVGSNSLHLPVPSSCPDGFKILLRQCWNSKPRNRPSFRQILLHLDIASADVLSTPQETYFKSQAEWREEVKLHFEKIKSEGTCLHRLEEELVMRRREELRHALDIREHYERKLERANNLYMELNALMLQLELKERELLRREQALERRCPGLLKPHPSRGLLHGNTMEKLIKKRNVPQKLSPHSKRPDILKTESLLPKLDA
RECORDED_METRIC: IC50 (nM)
Please give a number only; it is taken to be in nM.

# count of solved cases: 2
- SMILES_REPRESENTATION: "Nc1nc2c(C(F)(F)F)cc(-c3csc(C(=O)NC4CCCCC4)c3)cn2n1"
  IC50 / nM: 970
- SMILES_REPRESENTATION: "COCc1cc(-c2csc(C(=O)NCc3ccc(F)cc3)c2)cn2nc(N)nc12"
  IC50 / nM: 750

Challenge: Specify the recorded IC50 for "Cc1cn(C)nc1CNC(=O)c1cc(-c2ccc3nc(N)nn3c2)cs1" , system: DLK (Homo sapiens (Human), UniProt Q12852).
Response given: 1500
